Origin of measurements: patent US8691855B2

biological target: vanilloid receptor (Rattus norvegicus, UniProt O35433); construct: DRG nerve cells from the primary culture of 2 days were equilibrated; endogenous in cells; assay: 45Ca influx test (antagonist calcium uptake test) in rat DRG neurons stimulated with capsaicin; conditions: neonatal SD rat DRG neurons; capsaicin 0.5 μM; 45Ca
Sequence (O35433 whole entry): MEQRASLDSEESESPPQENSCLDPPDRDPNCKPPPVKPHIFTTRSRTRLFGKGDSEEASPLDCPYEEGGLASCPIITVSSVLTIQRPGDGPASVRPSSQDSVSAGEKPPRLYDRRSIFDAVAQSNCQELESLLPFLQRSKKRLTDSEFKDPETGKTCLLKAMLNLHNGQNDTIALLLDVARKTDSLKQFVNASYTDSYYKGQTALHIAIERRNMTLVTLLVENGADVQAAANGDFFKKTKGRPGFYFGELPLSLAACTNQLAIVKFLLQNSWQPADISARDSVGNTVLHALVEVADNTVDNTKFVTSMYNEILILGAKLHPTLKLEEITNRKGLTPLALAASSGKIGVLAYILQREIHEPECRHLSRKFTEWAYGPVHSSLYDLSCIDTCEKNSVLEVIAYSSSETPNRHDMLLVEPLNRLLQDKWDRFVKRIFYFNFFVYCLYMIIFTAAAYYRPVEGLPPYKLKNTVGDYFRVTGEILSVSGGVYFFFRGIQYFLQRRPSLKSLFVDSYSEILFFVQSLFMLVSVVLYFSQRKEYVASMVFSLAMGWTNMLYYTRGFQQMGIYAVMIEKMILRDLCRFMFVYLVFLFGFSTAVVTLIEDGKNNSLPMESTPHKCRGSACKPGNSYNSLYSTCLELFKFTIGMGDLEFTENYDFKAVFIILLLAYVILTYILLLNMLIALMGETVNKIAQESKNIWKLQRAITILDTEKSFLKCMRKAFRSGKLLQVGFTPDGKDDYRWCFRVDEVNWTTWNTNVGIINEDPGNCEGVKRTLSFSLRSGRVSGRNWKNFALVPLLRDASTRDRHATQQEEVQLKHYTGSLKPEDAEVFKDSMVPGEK
pIC50: −log10 of the molar value.
readoutLabel: pIC50

| itemSmiles | pIC50 |
| --- | --- |
| Cc1cc(C)cc(-c2nc(C(=O)N[C@H](C)c3cc(F)c(NS(C)(=O)=O)c(F)c3)co2)c1 | 5.70 |
| C[C@@H](NC(=O)c1coc(Oc2cc(C(F)(F)F)cc(C(F)(F)F)c2)n1)c1cc(F)c(NS(C)(=O)=O)c(F)c1 | 5.89 |

(I) C[C@@H](NC(=O)c1coc(Oc2cc(C(F)(F)F)ccc2Cl)n1)c1cc(F)c(NS(C)(=O)=O)c(F)c1
(II) CC(C)c1cccc(-c2ccc(C(=O)N[C@H](C)c3cc(F)c(NS(C)(=O)=O)c(F)c3)s2)c1
// query Lab note: record which item had the higher pIC50, I or II . Answer format: the label of the selected item.
// result I

###

target: vanilloid receptor (Rattus norvegicus); construct: DRG nerve cells from the primary culture of 2 days were equilibrated; endogenous in cells; host or cells: primary culture of dorsal root ganglion neurons from neonatal SD rats; assay: 45Ca influx test (antagonist calcium uptake test) in rat DRG neurons stimulated with capsaicin; assay type: cell-based; conditions: neonatal SD rat DRG neurons; capsaicin 0.5 μM; 45Ca
readoutLabel: IC50 (nM)

Take a look at these entries with their results.
| molecule | testSystem | IC50 / nM |
| --- | --- | --- |
| CS(=O)(=O)Nc1c(F)cc(CNC(=O)c2csc(Oc3ccc(C(F)(F)F)cc3)n2)cc1F [Example 14] | vanilloid receptor (Rattus norvegicus) | 1500 |
| CC(C)c1ccccc1Oc1nc(C(=O)N[C@H](C)c2cc(F)c(NS(C)(=O)=O)c(F)c2)co1 [Example 3] | vanilloid receptor (Rattus norvegicus) | 490 |
| C[C@@H](NC(=O)c1coc(Oc2cccc(C3CC3)c2)n1)c1cc(F)c(NS(C)(=O)=O)c(F)c1 [Example 32] | vanilloid receptor (Rattus norvegicus) | 280 |
| C#Cc1cccc(Oc2nc(C(=O)N[C@H](C)c3cc(F)c(NS(C)(=O)=O)c(F)c3)co2)c1 [Example 27] | vanilloid receptor (Rattus norvegicus) | 1600 |
| C[C@@H](NC(=O)c1coc(Oc2cccc(Cl)c2)n1)c1cc(F)c(NS(C)(=O)=O)c(F)c1 [Example 16] | vanilloid receptor (Rattus norvegicus) | 770 |
| C[C@@H](NC(=O)c1cnc(-c2cc(C(F)(F)F)cc(C(F)(F)F)c2)s1)c1cc(F)c(NS(C)(=O)=O)c(F)c1 [Example 126] | vanilloid receptor (Rattus norvegicus) | 490 |
| C[C@@H](NC(=O)c1coc(Oc2ccc(C(F)(F)F)cc2)n1)c1cc(F)c(NS(C)(=O)=O)c(F)c1 [Example 6] | vanilloid receptor (Rattus norvegicus) | 5000 |
| CS(=O)(=O)Nc1ccc(CNC(=O)c2ccc(-c3ccccc3C(F)(F)F)o2)cc1F [Example 117] | vanilloid receptor (Rattus norvegicus) | 680 |

(1) CC(C)c1cccc(Oc2ccc(C(=O)N[C@H](C)c3cc(F)c(NS(C)(=O)=O)c(F)c3)o2)c1 [Example 59]
(2) CC(C)c1cccc(-c2nc(C(=O)N[C@H](C)c3cc(F)c(NS(C)(=O)=O)c(F)c3)co2)c1 [Example 69]
// query Form field 'greater IC50' accepts 1 or 2 ; which applies? Answer = label.
// result 1

(I) C=C1CCCc2c(Oc3nc(C(=O)N[C@H](C)c4cc(F)c(NS(C)(=O)=O)c(F)c4)co3)cccc21 [Example 37]
(II) C[C@@H](NC(=O)c1ccc(-c2cccc(C(F)(F)F)c2)s1)c1cc(F)c(NS(C)(=O)=O)c(F)c1 (stereo in doubt) [Example 73]
// query For the pair I and II , which member has the lower IC50 number? Pick one and reply with its label.
// result I

(a) C[C@@H](NC(=O)c1csc(-c2cccc(C(F)(F)F)c2)n1)c1cc(F)c(NS(C)(=O)=O)c(F)c1 [Example 94]
(b) C[C@@H](NC(=O)c1coc(Oc2cccc3c2OC2(CCCC2)O3)n1)c1cc(F)c(NS(C)(=O)=O)c(F)c1 [Example 49]
(c) CS(=O)(=O)Nc1ccc(CNC(=O)c2cnc(-c3ccc(C(F)(F)F)cc3)s2)cc1F [Example 122]
(d) CSc1cccc(-c2nc(C(=O)N[C@H](C)c3cc(F)c(NS(C)(=O)=O)c(F)c3)co2)c1 [Example 98]
// query Hello, I need these entries ordered by IC50, highest reading first. Thanks! Response format: the labels, sorted as the prompt asks.
// result c, d, b, a

###

target: vanilloid receptor (Rattus norvegicus, UniProt O35433); construct: DRG nerve cells from the primary culture of 2 days were equilibrated; endogenous in cells; assay: 45Ca influx test (antagonist calcium uptake test) in rat DRG neurons stimulated with capsaicin; details: neonatal SD rat DRG neurons; capsaicin 0.5 μM; 45Ca
pIC50: −log10 of the molar value.
readoutLabel: pIC50

| molecule | pIC50 |
| --- | --- |
| CS(=O)(=O)Nc1ccc(CNC(=O)c2ccc(-c3ccc(F)c(C(F)(F)F)c3)o2)cc1F [Example 125] | 6.28 |

(P) C[C@@H](NC(=O)c1coc(N2CCCC3CCCCC32)n1)c1cc(F)c(NS(C)(=O)=O)c(F)c1 (stereo partly shown) [Example 19]
(Q) CC(c1cccc(Oc2nc(C(=O)N[C@H](C)c3cc(F)c(NS(C)(=O)=O)c(F)c3)co2)c1)C(F)(F)F (stereo partly shown) [Example 35]
// query Form: Entry with minimum pIC50 (choose one): P / Q // return label of chosen record
// result Q
(Q: 5.74, P: 6.21)

###

target: vanilloid receptor (Rattus norvegicus, UniProt O35433); construct: DRG nerve cells from the primary culture of 2 days were equilibrated; endogenous in cells; experiment: 45Ca influx test (antagonist calcium uptake test) in rat DRG neurons stimulated with capsaicin; conditions: neonatal SD rat DRG neurons; capsaicin 0.5 μM; 45Ca
pIC50: −log10 of the molar value.
readoutLabel: pIC50

| itemSmiles | pIC50 |
| --- | --- |
| C[C@@H](NC(=O)c1coc(-c2cccc(C3CC3)c2)n1)c1cc(F)c(NS(C)(=O)=O)c(F)c1 | 7.32 |
| CS(=O)(=O)Nc1c(F)cc(CNC(=O)c2ccc(-c3cccc(C(F)(F)F)c3)s2)cc1F | 5.57 |

(I) COc1ccc(C(C)C)cc1-c1nc(C(=O)N[C@H](C)c2cc(F)c(NS(C)(=O)=O)c(F)c2)co1
(II) CC(C)c1cccc(-c2nc(C(=O)N[C@H](C)c3cc(F)c(NS(C)(=O)=O)c(F)c3)cs2)c1
(III) C[C@@H](NC(=O)c1coc(-c2ccc(Cl)c(Cl)c2)n1)c1cc(F)c(NS(C)(=O)=O)c(F)c1
// query Order the 3 compounds from highest to lowest pIC50. Record the ranking as a list of labels in the requested order.
// result II, III, I

###

molecular target: vanilloid receptor (Rattus norvegicus, UniProt O35433); construct: DRG nerve cells from the primary culture of 2 days were equilibrated; endogenous in cells; assay: 45Ca influx test (antagonist calcium uptake test) in rat DRG neurons stimulated with capsaicin; conditions: neonatal SD rat DRG neurons; capsaicin 0.5 μM; 45Ca
readoutLabel: IC50 (nM)

Answered cases to consult:
| molecule | testSystem | IC50 / nM |
| --- | --- | --- |
| C=C1CCc2c(Oc3nc(C(=O)N[C@H](C)c4cc(F)c(NS(C)(=O)=O)c(F)c4)co3)cccc21 | vanilloid receptor (Rattus norvegicus, UniProt O35433) | 820 |
| CCC1CCc2c(Oc3nc(C(=O)N[C@H](C)c4cc(F)c(NS(C)(=O)=O)c(F)c4)co3)cccc21 (stereo partly drawn) | vanilloid receptor (Rattus norvegicus, UniProt O35433) | 400 |
| CS(=O)(=O)Nc1c(F)cc(CNC(=O)c2cc(-c3ccc(Br)cc3)oc2C(F)(F)F)cc1F | vanilloid receptor (Rattus norvegicus, UniProt O35433) | 2800 |
| CS(=O)(=O)Nc1c(F)cc(CNC(=O)c2ccc(-c3cccc(C(F)(F)F)c3)o2)cc1C#N | vanilloid receptor (Rattus norvegicus, UniProt O35433) | 330 |
| C[C@@H](NC(=O)c1ccc(-c2cc(C3CC3)cc(C3CC3)c2)o1)c1cc(F)c(NS(C)(=O)=O)c(F)c1 | vanilloid receptor (Rattus norvegicus, UniProt O35433) | 520 |
| C[C@@H](NC(=O)c1csc(-c2cccc(C3CC3)c2)n1)c1cc(F)c(NS(C)(=O)=O)c(F)c1 | vanilloid receptor (Rattus norvegicus, UniProt O35433) | 73 |
| CCOc1cccc(-c2ccc(C(=O)NCc3cc(F)c(NS(C)(=O)=O)c(F)c3)s2)c1 | vanilloid receptor (Rattus norvegicus, UniProt O35433) | 4100 |
| CC(C)c1ccc(Oc2nc(C(=O)N[C@H](C)c3cc(F)c(NS(C)(=O)=O)c(F)c3)co2)cc1 | vanilloid receptor (Rattus norvegicus, UniProt O35433) | 3600 |
| C[C@@H](NC(=O)c1coc(-c2cccc3ccccc23)n1)c1cc(F)c(NS(C)(=O)=O)c(F)c1 | vanilloid receptor (Rattus norvegicus, UniProt O35433) | 720 |
| Cc1cc(CNC(=O)c2ccc(-c3cccc(C(F)(F)F)c3)o2)ccc1NS(C)(=O)=O | vanilloid receptor (Rattus norvegicus, UniProt O35433) | 220 |

(A) CS(=O)(=O)Nc1c(F)cc(CNC(=O)c2ccc(-c3cccc(C(F)(F)F)c3)o2)cc1C(F)(F)F
(B) C[C@@H](NC(=O)c1coc(-c2cccc(Cl)c2)n1)c1cc(F)c(NS(C)(=O)=O)c(F)c1
// query Please tell me which of the two, A or B , has the higher reported IC50 value. // return label of chosen record
// result A

(a) C[C@@H](NC(=O)c1coc(Oc2cc(C(F)(F)F)ccc2C2CC2)n1)c1cc(F)c(NS(C)(=O)=O)c(F)c1
(b) CCCCOc1ccccc1-c1nc(C(=O)N[C@H](C)c2cc(F)c(NS(C)(=O)=O)c(F)c2)co1
// query Form: Entry with minimum IC50 (choose one): a / b Record your answer as the label of the chosen record.
// result b
(b: 750 nM, a: 2900 nM)
